Listing of recorded pKd by entry.
Biological target: GDP-bound KRAS wild-type protein (Homo sapiens, UniProt P01116)
Sequence (P01116 1-188 isoform P01116-2): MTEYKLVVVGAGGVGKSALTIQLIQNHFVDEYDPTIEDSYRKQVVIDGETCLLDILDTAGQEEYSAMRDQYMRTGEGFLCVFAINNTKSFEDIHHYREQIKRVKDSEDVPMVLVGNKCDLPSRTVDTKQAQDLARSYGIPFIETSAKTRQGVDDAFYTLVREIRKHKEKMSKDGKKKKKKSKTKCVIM
Test: Binding to KRAS by surface plasmon resonance (SPR), dissociation constant KD
Details: Single Cycle Kinetics
In simple prose, pKd is minus the logarithm base ten of a concentration in moles per litre.

Examples with their reported pKd follow.
Sample smiles	Value type	Endpoint result
CC[C@H](C)[C@@H]1NC(=O)[C@H](Cc2ccccc2)N(C)C(=O)C[C@@H](C(=O)N2CCOCC2)N(C)C(=O)[C@H](C2CCCC2)N(C)C(=O)C2(CCCC2)NC(=O)[C@@H]2CCCN2C(=O)[C@H](CCc2ccc(C(F)(F)F)c(Cl)c2)NC(=O)CN(C)C(=O)[C@H](Cc2ccc(F)cc2)N2CCCCC[C@@H](C2=O)N(C)C(=O)CN(C)C1=O	pKd	9.21
C#CC[C@H]1C(=O)N[C@@H]([C@@H](C)CC)C(=O)N(C2CC2)CC(=O)N(C)[C@H]2C/C=C\CCN(C2=O)[C@@H](Cc2ccc(C(F)(F)F)cc2)C(=O)N(C)CC(=O)N[C@@H](CCc2cc(F)c(C(F)(F)F)c(F)c2)C(=O)N2C[C@H](OCC)C[C@H]2C(=O)N(C)C2(CCC2)C(=O)N(C)[C@@H](C2CCCC2)C(=O)N(C)[C@H](C(=O)N(C)C)CC(=O)N1C	pKd	10.00

Lab note: next compound to report on.
Which pKd is reported for this compound? CCC[C@H]1C(=O)N[C@@H]([C@@H](C)CC)C(=O)N(C2CC2)CC(=O)N(C)[C@H]2C/C=C\CCN(C2=O)[C@@H](Cc2ccc(C)cc2)C(=O)N(C)CC(=O)N[C@@H](CCc2ccc(C(F)(F)F)c(Cl)c2)C(=O)N2CC[C@H](OC)[C@H]2C(=O)N(C)C2(CCC2)C(=O)N(C)[C@@H](C2CCCC2)C(=O)N(C)[C@H](C(=O)N(C)C)CC(=O)N1C
9.60

====

Test system: human lung cancer strain NCI-H441
Test: NCI-H441 cell proliferation inhibitory activity (CellTiter-Glo, 4 days)
Assay type: cell-based
Settings: NCI-H441 cells, 4 days, read-out: NCl-H441 IC50
Value type: pIC50
pIC50 is a log-scale quantity: -log10 of the concentration expressed in molar.

Sample smiles	Endpoint result
CCCO[C@H](C)[C@@H]1NC(=O)[C@H](COCC)N(C)C(=O)C[C@@H](C(=O)N(C)CC)N(C)C(=O)[C@H](C2CCCC2)N(C)C(=O)C2(CC(C)(C)C2)NC(=O)[C@@H]2C[C@@H](OCC)CN2C(=O)[C@H](CCc2cc(F)c(C(F)(F)F)c(F)c2)NC(=O)CN(C)C(=O)[C@H](Cc2ccc(C)cc2)N2CC/C=C\C[C@@H](C2=O)N(C)C(=O)[C@@H]2CCCN2C1=O	6.90

Give its pIC50 value. Item: CCC[C@@H]1NC(=O)C[C@@H](C(=O)N(C)C)N(C)C(=O)[C@H](C2CCCC2)N(C)C(=O)C2(CC(C)(C)C2)NC(=O)[C@@H]2C[C@@H](OCC)CN2C(=O)[C@H](CCc2cc(F)c(C(F)(F)F)c(F)c2)NC(=O)CN(C)C(=O)[C@H](Cc2ccc(C(F)(F)F)cc2)N2CC/C=C\C[C@@H](C2=O)N(C)C(=O)CN(C)C(=O)[C@H]([C@@H](C)CC)NC1=O
7.88

====

Known IC50 of a selection of molecules
Tested on: human lung cancer strain NCI-H441
Format: cell-based
Where a SMILES comes first, the peptide text is derived from it. Bridges are numbered along the chain shown (N, C = ends). [ ]: non-standard residue; d: D form. The star is where a group is joined. hPhe(3-Cl-4-CF3) = N[C@@H](CCc1ccc(C(F)(F)F)c(Cl)c1)C(=O)O; NPrPhe(4-CF3) = CCCN[C@@H](Cc1ccc(C(F)(F)F)cc1)C(=O)O; NMeGly(cPent) = CN[C@H](C(=O)O)C1CCCC1; NMeL = CN[C@@H](CC(C)C)C(=O)O; Morpholide = C1CN(*)CCO1; NMeA = CN[C@@H](C)C(=O)O; Ac5c = NC1(C(=O)O)CCCC1; Aze = O=C(O)[C@@H]1CCN1; Sar = CNCC(=O)O
Express it in nM; write the number only.

Some solved cases for reference:
Molecule	Target or test system	IC50, nM
CC[C@H](C)[C@@H]1NC(=O)[C@H](COC)N(C)C(=O)C[C@@H](C(=O)N(C)C)N(C)C(=O)[C@H](C2CCCC2)N(C)C(=O)C2(CC(C)(C)C2)NC(=O)CNC(=O)[C@H](CCc2ccc(C(F)(F)F)c(Cl)c2)NC(=O)CN(C)C(=O)[C@H](Cc2ccc(C(F)(F)F)cc2)N2CC/C=C\C[C@@H](C2=O)N(C)C(=O)CN(C)C1=O [PP3134]	human lung cancer strain NCI-H441	812
CCCN1C(=O)[C@@H]2CCN2C(=O)[C@H](C)N(C)C(=O)[C@H]([C@@H](C)CC)NC(=O)[C@H](CC(C)C)N(C)C(=O)C[C@@H](C(=O)N2CCOCC2)NC(=O)[C@H](C2CCCC2)N(C)C(=O)C2(CCCC2)NC(=O)[C@@H]2CCCN2C(=O)[C@H](CCc2ccc(C(F)(F)F)c(Cl)c2)NC(=O)CN(C)C(=O)[C@@H]1Cc1ccc(C(F)(F)F)cc1 [PP0343] ([NMeL]I[NMeA][Aze][NPrPhe(4-CF3)][Sar][hPhe(3-Cl-4-CF3)]P[Ac5c][NMeGly(cPent)]D-Morpholide; lactam N-11)	human lung cancer strain NCI-H441	47.6

Next, consider the following molecule.
For the molecule shown here, CC[C@H](C)[C@@H]1NC(=O)[C@H](CC(C)C)N(C)C(=O)C[C@@H](C(=O)N2CCOCC2)N(C)C(=O)[C@H](C2CCCC2)N(C)C(=O)C2(CCCC2)NC(=O)[C@@H]2CCCN2C(=O)[C@H](CCc2ccc(C(F)(F)F)c(Cl)c2)NC(=O)CN(C)C(=O)[C@H](Cc2ccc(Cl)cc2)N2C/C=C\CC[C@@H](C2=O)N(C)C(=O)CN(C)C1=O [PP0608] , give the reported IC50.
252

====

Molecular target: GDP-bound KRAS wild-type protein (Homo sapiens)
Experiment: Binding to KRAS by surface plasmon resonance (SPR), dissociation constant KD
Settings: Single Cycle Kinetics, 1:1 binding model
Value type: Kd (nM)
Could you give me the number in nM? Just the number is fine.

Molecule	Target or test system	Output unit	Kd
CCC[C@H]1C(=O)N[C@@H]([C@@H](C)CC)C(=O)N(C)CC(=O)N(C)[C@H]2C/C=C\CCN(C2=O)[C@@H](CC2CCCCC2)C(=O)N(C)CC(=O)N[C@@H](CCc2ccc(C(F)(F)F)c(OC)c2)C(=O)N2C[C@H](OCC)C[C@H]2C(=O)N(C)C2(CCC2)C(=O)N(C)[C@@H](C(CC)CC)C(=O)N(C)[C@H](C(=O)N(C)C)CC(=O)N1C [PP2333]	GDP-bound KRAS wild-type protein (Homo sapiens)	nM	1.9

Recall the recorded Kd for CCO[C@@H]1C[C@H]2C(=O)NC3(CCCC3)C(=O)N(C)[C@@H](C3CCCC3)C(=O)N(C)[C@H](C(=O)N3CCOCC3)CC(=O)N(C)[C@@H](CC)C(=O)N[C@@H]([C@@H](C)CC)C(=O)N(C)CC(=O)N(C)[C@H]3CC[C@@H](C)CN(C3=O)[C@@H](Cc3ccc(C(F)(F)F)cc3)C(=O)N(C)CC(=O)N[C@@H](CCc3cc(F)c(C(F)(F)F)c(F)c3)C(=O)N2C1 [PP1371] with GDP-bound KRAS wild-type protein (Homo sapiens) and state it.
0.077

====

# pIC50 per record follows
Test system: human lung cancer strain NCI-H441
Assay type: cell-based
# pIC50 = -log10(concentration in molar units)

Would you please look over these solved cases?
Sample smiles	pIC50
CCC[C@H]1C(=O)N[C@@H]([C@@H](C)CC)C(=O)N2CCC[C@H]2C(=O)N(C)[C@H]2C/C=C\CCN(C2=O)[C@@H](CC2CCCCC2)C(=O)N(C)CC(=O)N[C@@H](CCc2ccc(C(F)(F)F)c(OC)c2)C(=O)N2C[C@H](OCC)C[C@H]2C(=O)N(C)C2(CCC2)C(=O)N(C)[C@@H](C(CC)CC)C(=O)N(C)[C@H](C(=O)N(C)C)CC(=O)N1C	6.88
CC[C@H](C)[C@@H]1NC(=O)[C@H](CC(C)C)N(C)C(=O)C[C@@H](C(=O)N2CCOCC2)N(C)C(=O)[C@H](C2CCCC2)N(C)C(=O)C2(CCC2)NC(=O)[C@@H]2[C@H](OC)CCN2C(=O)[C@H](CCc2cc(F)c(C(F)(F)F)c(F)c2)NC(=O)CN(C)C(=O)[C@H](Cc2ccc(C(F)(F)F)cc2)N2CCCC[C@@H](C2=O)N(C)C(=O)CN(C)C1=O	6.21

Quick one: pIC50 for CCC[C@H]1C(=O)N[C@@H]([C@@H](C)CC)C(=O)N(C)CC(=O)N(C)[C@H]2C/C=C\CCN(C2=O)[C@@H](Cc2ccc(C(F)(F)F)cc2)C(=O)N(C)CC(=O)N[C@@H](CCc2ccc(C(F)(F)F)c(Cl)c2)C(=O)N2C[C@@H](C)C[C@H]2C(=O)NC2(CC(C)(C)C2)C(=O)N(C)[C@@H](C2CCCC2)C(=O)N(C)[C@H](C(=O)N(C)C)CC(=O)N1C ?
7.98
